tgt: CeTb, colchicine site (Gallus gallus)
method.notes: Single-point MDL competitive binding inhibition screen, erythrocyte tubulin
Set-up: species or system chicken (Gallus gallus)
condition.label: 50 µM drug, 1 µM tubulin, 5 µM MDL, single point
Binary call on CeTb % (inhibition of MDL binding): met from 30% upward, not met beneath that.

Sample answers from the record:
Input: Does CC(Nc1ccccc1)=C1C(=O)NC(Cc2ccccc2)C1=O (centres unmarked) [TN16] have a reported CeTb % (inhibition of MDL binding) of at least 30%?
Output: met

Input: Ok, now COc1cc2c(c(N)c1OC)C(=O)/C(=C\c1cc(C)c(O)c(C)c1)C2 [Indanocine]
Output: met

Input: Ok, now COc1cc2c(c(OC)c1OC)-c1ccc(O)c(=O)cc1C(N)CC2 (centres unmarked) [Trimethylcolchicinic acid]
Output: not met

Next:
Input: Does C[C@H]1CCC/C=C/C(=O)c2c(O)cc(O)cc2CC(=O)O1 [Dehydrocurvularin] have a reported CeTb % (inhibition of MDL binding) of at least 30%?
Output: not met

Input: Ok, now COc1ccc(-c2ccc(OC)c(=O)cc2)c(OC)c1OC [AC (MTC)]
Output: not met

Input: Ok, now CCCOc1ccc2nc(NC(=O)OC)[nH]c2c1 [Oxibendazole]
Output: met

Input: Ok, now CCCSc1ccc2nc(NC(=O)OC)[nH]c2c1 [Albendazole]
Output: met
